System: Human immunodeficiency virus 1
Test: Inhibitory concentration against resistant (A17) human immunodeficiency virus
Type: functional, organism-based
Assignment: determine reported pIC50 for the given compounds.
Answers are plain numbers, as −log10 of the molar value.

The cases that follow already have their pIC50 on record.
structure as smiles: CC(=O)c1ccc(S(=O)(=O)N(CC(C)C)C[C@@H](O)[C@H](Cc2ccccc2)NC(=O)[C@H](C(C)C)N2CCN(Cc3csc(C)n3)C2=O)cc1
pIC50: 6.17
--
structure as smiles: Cc1nc(CN2CCN([C@H](C(=O)N[C@@H](Cc3ccccc3)[C@H](O)CN(CC(C)C)S(=O)(=O)c3ccc(C(N)=O)cc3)C(C)C)C2=O)cs1
pIC50: 6.03

Lookup: Which pIC50 is listed for CC(=O)Nc1ccc(S(=O)(=O)N(CC(C)C)C[C@@H](O)[C@H](Cc2ccccc2)NC(=O)[C@H](C(C)C)N2CCN(Cc3csc(C)n3)C2=O)cc1 ?
Found: 5.82

====

Assignment: determine reported pIC50 for the given compounds.
Tested on: Human immunodeficiency virus 1
Test: Inhibitory concentration against resistant (A17) human immunodeficiency virus
Format: functional, organism-based
Numbers only, as −log10 of the molar value.

The cases that follow already have their pIC50 on record.
structure as smiles: Cc1nc(CN2CCN([C@H](C(=O)N[C@@H](Cc3ccccc3)[C@H](O)CN(CC(C)C)S(=O)(=O)c3ccc(C#N)cc3)C(C)C)C2=O)cs1
test target: Human immunodeficiency virus 1
pIC50: 5.93

structure as smiles: C=Cc1ccc(S(=O)(=O)N(CC(C)C)C[C@@H](O)[C@H](Cc2ccccc2)NC(=O)[C@H](C(C)C)N2CCN(Cc3csc(C)n3)C2=O)cc1
test target: Human immunodeficiency virus 1
pIC50: 6.02

Lookup: Which pIC50 is listed for Cc1nc(CN2CCN([C@H](C(=O)N[C@@H](Cc3ccccc3)[C@H](O)CN(CC(C)C)S(=O)(=O)c3cccc(CO)c3)C(C)C)C2=O)cs1 ?
Found: 6.04
